# measured.target: HLA-A*24:03
# measurement.notes: IEDB peptide-MHC binding, purified MHC/direct/fluorescence; filed as Kd, often an IC50 or EC50 that approximates it; bounds were set here for any values at or beyond the usual limits of such assays
# test.parameters: source organism: Yersinia pestis Nepal516
pKd: −log10 of the molar value.
recorded.endpoint: pKd

q: Please look at this sequence and report its pKd: `LSEEIGLDL`
a: ≤ 4.70

---

# measured.target: HLA-A*31:01
# measurement.notes: IEDB peptide-MHC binding, purified MHC/direct/fluorescence; filed as Kd, often an IC50 or EC50 that approximates it; bounds were set here for any values at or beyond the usual limits of such assays
# test.parameters: source organism: Influenza A virus (A/chicken/Hunan/fg/2004(H5N1))
pKd: −log10 of the molar value.
recorded.endpoint: pKd

q: Check HLA-A*31:01 data and give pKd for `YSHGTGTGY` .
a: ≤ 4.70
